Task for the reader: assign each of the following binders its reported EC50.
- system under test: T1, Human LIGHT stably expressed on EL4 cells (EL4-LIGHT) (human, UniProt O43557 1-240)
- T1 construct: whole, on cells; also called membrane LIGHT
- T1 sequence (O43557 whole entry): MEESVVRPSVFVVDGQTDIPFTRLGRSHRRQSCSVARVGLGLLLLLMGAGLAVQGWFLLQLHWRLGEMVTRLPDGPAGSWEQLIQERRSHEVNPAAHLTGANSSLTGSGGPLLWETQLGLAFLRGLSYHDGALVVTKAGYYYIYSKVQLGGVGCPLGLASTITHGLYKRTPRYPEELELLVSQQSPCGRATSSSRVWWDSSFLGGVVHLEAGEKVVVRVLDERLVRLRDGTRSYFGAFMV
- measurement description: flow cytometry, EL4-LIGHT cells
The reply should contain only the number, in nM.

Value lookup for EC50; key = 3A07 chimeric IgG4 mAb (antibody, V domains shown, Chimeric human IgG4 (S-to-P, L-to-E) with human CL, as m1; also called Parental 3A07) VH: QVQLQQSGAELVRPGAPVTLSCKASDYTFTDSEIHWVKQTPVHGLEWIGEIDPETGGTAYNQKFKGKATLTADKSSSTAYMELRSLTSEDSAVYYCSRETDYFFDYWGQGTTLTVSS VL: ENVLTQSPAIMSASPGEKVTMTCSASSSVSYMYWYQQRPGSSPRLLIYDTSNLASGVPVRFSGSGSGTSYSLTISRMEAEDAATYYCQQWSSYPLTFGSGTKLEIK
0.133

Value lookup for EC50; key = 2B11 chimeric IgG4 mAb (antibody, V domains shown, Chimeric human IgG4 (S-to-P, L-to-E) with human CL, as m1; Often misprinted 2B111; also called Parental 2B11; 2B111) VH: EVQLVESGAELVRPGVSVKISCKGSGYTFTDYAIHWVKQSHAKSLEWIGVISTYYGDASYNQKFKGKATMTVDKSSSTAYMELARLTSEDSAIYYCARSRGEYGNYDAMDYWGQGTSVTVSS VL: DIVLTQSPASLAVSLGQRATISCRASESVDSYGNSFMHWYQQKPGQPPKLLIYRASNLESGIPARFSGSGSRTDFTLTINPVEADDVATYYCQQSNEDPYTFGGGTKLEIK
0.083

Value lookup for EC50; key = 3D12 chimeric IgG4 mAb (antibody, V domains shown, Chimeric human IgG4 (S-to-P, L-to-E) with human CL, as m1; also called Parental 3D12; 03D12) VH: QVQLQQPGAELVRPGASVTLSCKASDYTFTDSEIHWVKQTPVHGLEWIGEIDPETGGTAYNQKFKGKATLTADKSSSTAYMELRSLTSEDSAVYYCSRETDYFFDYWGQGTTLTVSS VL: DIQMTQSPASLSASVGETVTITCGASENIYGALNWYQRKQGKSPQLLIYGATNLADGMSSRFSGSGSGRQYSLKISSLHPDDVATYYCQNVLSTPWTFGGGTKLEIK
0.07
